tested on: SK-MEL-5; experiment: NCI tumour cell line growth inhibition, 48 h
Active and inactive are the calls of the source. Cut-off read from the data, not from the text of the source: active = GI50 up to about 1.1 µM and inactive = higher.
I'd be grateful if you could share measured GI50 for these entries.

Output measured GI50 for this item: CC1=CC(=O)NP(=O)(Oc2ccc(Cl)cc2)N1 (stereo not drawn)
> 100 µM (inactive)

Output measured GI50 for this item: Cn1c(-c2cccs2)cc(-c2cccs2)c1-c1ccco1
23.8 µM (inactive)

Output measured GI50 for this item: N#CC1C2CCC3(CC2CCN1C(=O)c1ccccc1)OCCO3 (stereo not drawn)
> 100 µM (inactive)

Output measured GI50 for this item: COc1ccccc1NC(=O)CC(=O)N1N=C(N2c3ccccc3Sc3ccccc32)CC1c1ccccc1 (stereo not drawn)
> 100 µM (inactive)

Output measured GI50 for this item: CSc1c(C#N)c(=O)[nH]c2[nH]nc(C)c12
> 100 µM (inactive)

Output measured GI50 for this item: CC(=O)NCC1OC2COC(c3ccccc3)OC2C2N=C(c3ccccc3)OC12 (stereo not drawn)
39.2 µM (inactive)

Output measured GI50 for this item: O=C(O)Cn1ccc(=O)c2c([N+](=O)[O-])cccc21
> 100 µM (inactive)

Output measured GI50 for this item: COc1ccc(/C=N\N2C(=O)Cc3ccccc32)cc1
> 100 µM (inactive)

Output measured GI50 for this item: CC(C)Cc1ccc(C(C)/C=C2\CCC(CN3CCCCC3)C2=O)cc1 (stereo not drawn)
13.5 µM (inactive)

Output measured GI50 for this item: COc1ccc2[nH]c(CCNC(=O)c3cc([N+](=O)[O-])cc([N+](=O)[O-])c3)cc2c1
> 100 µM (inactive)

Output measured GI50 for this item: Br/C(=N\N=c1/nn[nH][nH]1)c1ccncc1
> 100 µM (inactive)

Output measured GI50 for this item: Cc1nc2ccc([N+](=O)[O-])cc2c(=O)n1C(=S)Nc1cccc(Cl)c1
14.1 µM (inactive)

Output measured GI50 for this item: O=c1oc2c(ccc3ccccc32)cc1C1=CSC2=NCCN12
46.3 µM (inactive)

Output measured GI50 for this item: O=C(NC12CC3CC(CC(C3)C1)C2)n1cnc2cncnc21
16.1 µM (inactive)

Output measured GI50 for this item: O=C1CCCC2=C1CC1=C(CCCC1=O)N2c1cccc2ccccc12
85.3 µM (inactive)

Output measured GI50 for this item: N#CCCc1nc2ccc(Br)cc2c(=O)n1CCO
> 100 µM (inactive)

Output measured GI50 for this item: Cc1cc(N(CCOS(C)(=O)=O)CCOS(C)(=O)=O)ccc1C=O
7.78 µM (inactive)

Output measured GI50 for this item: CSc1cc(Cl)c(C)cc1S(=O)(=O)NC(=O)NNc1ccc(Cl)cc1
69.5 µM (inactive)

Output measured GI50 for this item: CCN1CCN(c2ccc(Nc3ccnc4ccc5nn(C)nc5c34)cc2)CC1
15.2 µM (inactive)

Output measured GI50 for this item: c1cc(-c2ccc(-c3ccc(-c4ccc(-c5ccncc5)o4)cc3)o2)ccn1
13.2 µM (inactive)

Output measured GI50 for this item: Cc1cccc(-c2cc(O)c3cccnc3n2)c1
0.467 µM (active)

Output measured GI50 for this item: CC1CN=C(N(C(=O)Nc2ccc(Cl)cc2)c2cccc(Cl)c2)S1 (stereo not drawn)
17.5 µM (inactive)

Output measured GI50 for this item: O=[N+]([O-])c1cccc(-c2ncc3c(n2)-c2ccccc2C3)c1
> 100 µM (inactive)

Data origin: ChEMBL document CHEMBL1201862
